Data origin: ChEMBL document CHEMBL1649130

# Test system: Streptococcus pneumoniae
# PROCEDURE DETAILS: Antimicrobial activity against Streptococcus pneumoniae assessed as resistant isolates broth microdilution method
# Assay type: functional
REPORTED PROPERTY: Activity

Some molecules with known Activity results, for comparison:
Tell me the measured Activity of "C[C@H]1c2cccc(O)c2C(=O)C2=C(O)[C@]3(O)C(=O)C(C(N)=O)=C(O)[C@@H](N(C)C)[C@@H]3[C@@H](O)[C@@H]21.O" , please.
0.9%

Tell me the measured Activity of "CC1(C)S[C@@H]2[C@H](NC(=O)Cc3ccccc3)C(=O)N2[C@H]1C(=O)O" , please.
6.8%

Tell me the measured Activity of "O=C(O)c1cn(C2CC2)c2cc(N3CCNCC3)c(F)cc2c1=O" , please.
1.7%

Let's switch to this molecule now.
Tell me the measured Activity of "CC[C@H]1OC(=O)[C@H](C)[C@@H](O[C@H]2C[C@@](C)(OC)[C@@H](O)[C@H](C)O2)[C@H](C)[C@@H](O[C@@H]2O[C@H](C)C[C@H](N(C)C)[C@H]2O)[C@](C)(OC)C[C@@H](C)C(=O)[C@H](C)[C@@H](O)[C@]1(C)O" , please.
11.8%
